Listing: koff of selected binders
system name: T1, hCD27-muFc (human; mouse, UniProt P26842 20-192)
T1 construct: range 1-192; Secreted from HEK293, Protein A purified; not shown: mouse IgG1-Fc (muFc), residues 98 to 324 of UniProt P01868
T1 sequence (looked up): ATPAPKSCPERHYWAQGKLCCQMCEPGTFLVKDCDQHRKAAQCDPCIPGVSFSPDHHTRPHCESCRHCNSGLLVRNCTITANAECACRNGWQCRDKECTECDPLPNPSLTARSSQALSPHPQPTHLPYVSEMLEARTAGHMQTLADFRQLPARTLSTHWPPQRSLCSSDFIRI
assay name: BLI (Octet K2), antibody on Protein A biosensor, hCD27-muFc in solution
Entry rule: numbers only, all in s⁻¹.

// solved cases for koff follow
d12674 (antibody, human IgG1, V domains shown, not shown: a dimerising Fc or GST, Humanized m2F11, human IgG1 / kappa) VH: EVHLQESGGGLVKPGGSLRLSCAASGFTFSSYAMSWVRQAPGKGLEWVAIIGDGDTYTYYPDSVKGRFTISRDNSKNRLYLQMNDLKSEDTAMYYCVRTRGGPFDYWGQGTTLTVSS VL: EILLTQSPAFMSATPGEKVTITCSASSSVGSMHWYQQKSGQSPRRLIYDTSKLASGVPDRFSGSGSGTDYTLTISSLEAEDAATYYCQQWSSIPPTFGAGTTLELK ... 0.000447
d12996 (antibody, human IgG1, V domains shown, not shown: a dimerising Fc or GST, Humanized m2F11, human IgG1 / kappa) VH: EVHLQESGGGLVKPGGSLRLSCAASGFTFSSYAMSWVRQEPEKNLEWVAIIGDGDTYTYYPDSVKGRFTISRDNSKNRLYLQMNDLKSEDTAMYYCVRTRGGPFDYWGQGTTLTVSS VL: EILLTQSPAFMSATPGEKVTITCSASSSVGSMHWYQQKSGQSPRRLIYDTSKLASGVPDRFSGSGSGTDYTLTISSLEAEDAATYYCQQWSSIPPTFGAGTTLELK ... 0.000326
12674 (antibody, human IgG1, V domains shown, not shown: a dimerising Fc or GST, Humanized m2F11, human IgG1 / kappa) VH: EVHLQESGGGLVKPGGSLRLSCAASGFTFSSYAMSWVRQAPGKGLEWVAIIGDGDTYTYYPDSVKGRFTISRDNSKNRLYLQMNSLKSEDTAMYYCVRTRGGPFDYWGQGTTLTVSS VL: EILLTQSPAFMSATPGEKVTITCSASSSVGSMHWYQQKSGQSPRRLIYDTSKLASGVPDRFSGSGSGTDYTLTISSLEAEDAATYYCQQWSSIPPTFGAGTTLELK ... 0.000291
d16647 (antibody, human IgG1, V domains shown, not shown: a dimerising Fc or GST, Humanized m2F11, human IgG1 / kappa) VH: QVELRESGGGLVKPGGSLRLSCAASGFTFSSYAMSWVRQTPDKGLEWVAIIGDGDTYTYYPDSVKGRFTISRDNSKNRLYLQMNDLKSEDTAMYYCVRTRGGPFDYWGQGTTLTVSS VL: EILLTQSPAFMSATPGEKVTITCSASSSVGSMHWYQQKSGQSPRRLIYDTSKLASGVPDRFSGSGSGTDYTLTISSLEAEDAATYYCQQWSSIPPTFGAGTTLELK ... 0.000281

Kindly review the next binder as well.
Recorded koff for 9419 (antibody, human IgG1, V domains shown, not shown: a dimerising Fc or GST, Humanized m2F11, human IgG1 / kappa) VH: EVHLQESGGALVKPGGSLRLSCAASGFTFSSYAMSWVRQAPEKGLEWVAIIGDGDTYTYYPDSVKGRFTISRDNAKNTLYLQMSNLKSEDTAMYYCVRTRGGPFDYWGQGTTLTVSS VL: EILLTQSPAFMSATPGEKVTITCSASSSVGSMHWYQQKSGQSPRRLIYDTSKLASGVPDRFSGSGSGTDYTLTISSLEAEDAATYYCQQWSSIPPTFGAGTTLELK , please?
0.000287

All figures here come from patent US20210179726A1.
